# solubility thermodynamic per entry
experiment: physchem; settings: phosphate buffer, pH 9.9
Description: Thermodynamic solubility in 50 mM aqueous phosphate buffer of pH 9.9 at 22.5 degC by HPLC analysis
measured attribute: solubility thermodynamic (mM)

INSERT INTO results (sample_smiles, measured_attribute, censor_symbol, reported_result) VALUES
  ('CN(C)CCCC(C)(C)c1ccc(C(C)(C)C)cc1', 'solubility thermodynamic', '<', 0.004),
  ('CN(C)CCCCc1ccc(C2(F)COC2)cc1', 'solubility thermodynamic', '=', 24),
  ('CN(C)CCCCc1ccc(C2(O)COC2)cc1', 'solubility thermodynamic', '=', 300),
  ('c1cc2c(cc1CN1CCC3(CC1)COC3)OCO2', 'solubility thermodynamic', '=', 5.4),
  ('CC1(C)CCN1Cc1ccc2c(c1)OCO2', 'solubility thermodynamic', '=', 1.7),
  ('O=C1CCN1Cc1ccc2c(c1)OCO2', 'solubility thermodynamic', '=', 10),
  ('O=C1CCCN(Cc2ccc3c(c2)OCO3)C1', 'solubility thermodynamic', '=', 9),
  ('c1cc2c(cc1CN1CC3CC(C1)O3)OCO2', 'solubility thermodynamic', '>', 11),
  ('CN(C)C1(CCCc2ccc(C(C)(C)C)cc2)COC1', 'solubility thermodynamic', '=', 0.21),
  ('CC1(C)CCCN1Cc1ccc2c(c1)OCO2', 'solubility thermodynamic', '=', 0.18),
  ('CN(C)CCCC1(c2ccc(C(C)(C)C)cc2)COC1', 'solubility thermodynamic', '=', 0.98),
  ('CC1(C)CCCN(Cc2ccc3c(c2)OCO3)C1', 'solubility thermodynamic', '=', 0.053);

Where do these numbers come from? They come from ChEMBL document CHEMBL1155463.
